Cited source: ChEMBL document CHEMBL3272257

# assay_name: Dissociation constant, pKa of the compound in water-ethyl alcohol
# Type: physicochemical
Measured pKa values are reported for all entries that follow.
measured_quantity: pKa

INSERT INTO measurements (smiles_structure, measured_quantity, reported_value) VALUES
  ('Clc1ccc(N=C2NCCN2)c(Cl)c1', 'pKa', 8.65),
  ('Cc1cccc(Cl)c1N=C1NCCN1', 'pKa', 9.2),
  ('Cc1cccc(C)c1N=C1NCCN1', 'pKa', 10.5),
  ('Cc1ccc(N=C2NCCN2)c(C)c1', 'pKa', 10.7),
  ('Clc1cc(Cl)c(N=C2NCCN2)cc1Cl', 'pKa', 7.7),
  ('Cc1cc(Cl)ccc1N=C1NCCN1', 'pKa', 9.75),
  ('CC(C)c1cccc(C(C)C)c1N=C1NCCN1', 'pKa', 10.7),
  ('Clc1cccc(Cl)c1NC1=NCCN1', 'pKa', 8.05),
  ('Clc1ccc(Cl)c(N=C2NCCN2)c1', 'pKa', 8),
  ('Cc1ccc(NC2=NCCN2)c(Cl)c1', 'pKa', 9.55),
  ('COc1ccc(OC)c(N=C2NCCN2)c1', 'pKa', 10.2),
  ('CCc1cccc(CC)c1NC1=NCCN1', 'pKa', 10.6),
  ('Fc1cccc(F)c1N=C1NCCN1', 'pKa', 8.4),
  ('Oc1cc(Cl)c(N=C2NCCN2)c(Cl)c1', 'pKa', 7.95);

====

# Organism: Rattus norvegicus
# assay_name: Hypotensive activity in rat assessed as change in mean blood pressure relative to control
# Assay type: functional
# Parameters: concentration or dose not given beside the values
Measured Activity values are reported for all entries that follow.
measured_quantity: Activity

INSERT INTO assay_data (molecule, measured_quantity, reported_value) VALUES
  ('CC(C)c1cccc(C(C)C)c1N=C1NCCN1', 'Activity', '<10%'),
  ('Fc1cccc(F)c1N=C1NCCN1', 'Activity', '<10%'),
  ('Brc1ccc(N=C2NCCN2)cc1', 'Activity', '<10%'),
  ('Clc1cccc(Cl)c1NC1=NCCN1 [CLONIDINE]', 'Activity', '15%'),
  ('Cc1cccc(Cl)c1N=C1NCCN1', 'Activity', '15%'),
  ('COc1ccc(OC)c(N=C2NCCN2)c1', 'Activity', '<10%'),
  ('Oc1cc(Cl)c(N=C2NCCN2)c(Cl)c1', 'Activity', '<10%'),
  ('Clc1cc(Cl)c(N=C2NCCN2)c(Cl)c1', 'Activity', '15%'),
  ('Cc1cc(Cl)ccc1N=C1NCCN1', 'Activity', '<10%'),
  ('Cc1cccc(C)c1N=C1NCCN1', 'Activity', '<10%'),
  ('Brc1cccc(Br)c1N=C1NCCN1', 'Activity', '15%'),
  ('COc1cc(OC)c(N=C2NCCN2)cc1Cl', 'Activity', '<10%'),
  ('Cc1ccc(Cl)cc1N=C1NCCN1', 'Activity', '<10%'),
  ('Cc1ccc(NC2=NCCN2)c(Cl)c1 [TOLONIDINE]', 'Activity', '15%'),
  ('CCc1cccc(CC)c1NC1=NCCN1', 'Activity', '>10%'),
  ('COc1cc(C)ccc1N=C1NCCN1', 'Activity', '<10%'),
  ('Clc1ccc(N=C2NCCN2)c(Cl)c1', 'Activity', '15%'),
  ('Cc1ccc(N=C2NCCN2)c(C)c1', 'Activity', '>10%'),
  ('FC(F)(F)c1ccccc1N=C1NCCN1', 'Activity', '<10%'),
  ('c1ccc(NC2=NCCN2)cc1', 'Activity', '<10%'),
  ('Clc1ccc(Cl)c(N=C2NCCN2)c1', 'Activity', '<10%');
